# measurement_notes: Wistar rat subcutaneous PK, fixed aluminum hydroxide 5 mg/mL (Example 10)
# Format: in vivo
# cond: rat, sc, 600 ug; 600 μg Compound 15 s.c., male Wistar rats, plasma, Table 15 (free compound data from Example 9)
measurement_label: AUC(0-inf)

Item: Cc1cc(OCCOCCC(F)(F)P(=O)(O)O)ccc1CCc1cnc2c(N)nc3cc(CCC(=O)O)ccc3c2c1 | AUC(0-inf): 2560 ng·h/mL

###

# measurement_notes: Mouse plasma PK, MC38 syngeneic tumor model, one week study
# Assay type: in vivo
# cond: female, C57BL/6, mouse, 100 ug, 100 μg Compound 15, single i.t. injection, MC38 tumor bearing mice
measurement_label: AUC(0-inf)
Quote the value and follow it with the unit of measurement.

Input Cc1cc(OCCOCCC(F)(F)P(=O)(O)O)ccc1CCc1cnc2c(N)nc3cc(CCC(=O)O)ccc3c2c1 [Compound 15] . Output AUC(0-inf): 6220 ng·h/mL
